Could you please report measured Ki for the items listed next?
# target: human recombinant dopamine D3 receptor (Homo sapiens (Human), UniProt P35462)
# Sequence (P35462 whole entry): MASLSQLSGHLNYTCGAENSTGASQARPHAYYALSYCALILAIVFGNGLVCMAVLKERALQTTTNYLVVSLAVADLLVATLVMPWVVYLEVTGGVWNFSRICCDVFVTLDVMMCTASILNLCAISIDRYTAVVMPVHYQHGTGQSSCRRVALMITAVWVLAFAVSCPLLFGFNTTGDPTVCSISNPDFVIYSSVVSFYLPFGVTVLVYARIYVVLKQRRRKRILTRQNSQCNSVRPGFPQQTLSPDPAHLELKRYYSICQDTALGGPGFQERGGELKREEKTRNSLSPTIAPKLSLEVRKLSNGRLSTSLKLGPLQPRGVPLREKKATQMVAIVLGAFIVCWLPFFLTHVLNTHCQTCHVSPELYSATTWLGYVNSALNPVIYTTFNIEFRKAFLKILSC
# protocol_notes: Test of binding inhibition for the human dopamine D3 receptor (SPA, [3H]-Metylspiperone)
# assay_conditions: Jump-In HEK cell membranes, 2 nM [3H]-Metylspiperone, 120 min at 25° C.; read-out: hD3_Ki
One number for each entry, in nM.

Okay, here is my list. What is Ki for each of these?
1. Cc1cc(CC(=O)N[C@H]2CC[C@H](CCN3CCc4sc(N5CC(F)(F)C5)nc4C3)CC2)on1
2. Cc1ncc(CC(=O)N[C@H]2CC[C@H](CCN3CCc4cc(C)c(OCC(F)F)nc4CC3)CC2)s1
3. Cc1cn2c(C(=O)N[C@H]3CC[C@H](CCN4CCc5ccc(OCC(F)F)nc5CC4)CC3)cccc2n1
4. Cc1ncc(CC(=O)N[C@H]2CC[C@H](CCN3CCc4cnc(OCC(F)F)nc4CC3)CC2)s1
5. COc1cc(CCC(=O)N[C@H]2CC[C@H](CCN3CCc4ccc(OCC(F)F)nc4CC3)CC2)on1

Output:
1. 0.12
2. 0.25
3. 0.014
4. 1.1
5. 0.058
